Sourced from paper PMC12679550

Biological target: α1AR (Homo sapiens)
Sequence (P35348 1-466): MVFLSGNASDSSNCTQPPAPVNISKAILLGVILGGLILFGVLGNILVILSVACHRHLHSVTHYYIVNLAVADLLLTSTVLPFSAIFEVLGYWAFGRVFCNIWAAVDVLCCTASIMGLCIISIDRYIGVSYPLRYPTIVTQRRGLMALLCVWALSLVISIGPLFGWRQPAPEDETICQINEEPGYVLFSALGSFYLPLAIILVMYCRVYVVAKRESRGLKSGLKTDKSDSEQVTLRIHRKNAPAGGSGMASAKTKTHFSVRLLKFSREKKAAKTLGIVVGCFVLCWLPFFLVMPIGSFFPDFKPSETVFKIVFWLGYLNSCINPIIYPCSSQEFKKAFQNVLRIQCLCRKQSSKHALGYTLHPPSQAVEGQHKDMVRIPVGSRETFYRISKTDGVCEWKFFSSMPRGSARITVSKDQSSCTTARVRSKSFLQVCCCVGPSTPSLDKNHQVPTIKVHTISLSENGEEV
Assay: cell-based
Settings: EC50, α11, α1AR-Gα11
pEC50: −log10 of the molar value.
reported_endpoint: pEC50

| molecule | observed |
| --- | --- |
| CC(Oc1c(Cl)cccc1Cl)C1=NCCN1 (stereo not shown) | 6.95 |
